Give measured AC50 for each item. Keep answers brief.
# studyTarget: Growth hormone secretagogue receptor type 1 (Homo sapiens); also: assay procedure not described here
# Sequence (Q92847 whole entry): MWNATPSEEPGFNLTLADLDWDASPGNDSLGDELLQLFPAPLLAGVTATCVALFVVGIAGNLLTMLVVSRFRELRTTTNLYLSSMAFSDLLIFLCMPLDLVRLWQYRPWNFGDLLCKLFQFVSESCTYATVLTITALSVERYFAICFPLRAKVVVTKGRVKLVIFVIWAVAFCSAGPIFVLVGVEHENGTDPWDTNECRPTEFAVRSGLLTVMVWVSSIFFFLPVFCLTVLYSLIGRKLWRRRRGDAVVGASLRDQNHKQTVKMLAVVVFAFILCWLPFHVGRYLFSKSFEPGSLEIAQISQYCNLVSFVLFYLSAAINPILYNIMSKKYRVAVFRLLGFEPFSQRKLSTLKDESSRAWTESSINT

Worked cases, answers included:
>>> df
                                   molecule  measure  valueobserved
0     COC(=O)[C@H](c1ccccc1Cl)N1CCc2sccc2C1     AC50        > 30 µM
1  COCCCOc1ccnc(C[S+]([O-])c2nc3ccccc3[nH]2)c1C (configuration not stated)     AC50        > 30 µM
2  NC(=O)c1ncn([C@@H]2O[C@H](CO)[C@@H](O)[C@H]2O)n1     AC50        > 10 µM
3  COc1c(O[C@@H]2O[C@H](CO)[C@@H](O)[C@H](O)[C@H]2O)cc2c(c1OC)-c1ccc(SC)c(=O)cc1[C@@H](NC(C)=O)CC2 [THIOCOLCHICOSIDE]     AC50        > 30 µM
4  CC(=O)OCC(=O)[C@@]1(O)CC[C@H]2[C@@H]3CCC4=CC(=O)CC[C@]4(C)C3=CC[C@@]21C [ANECORTAVE ACETATE]     AC50        > 10 µM

Quick one: give me AC50 for each item below, same order please.
1. CC(=O)S[C@@H]1CC2=CC(=O)CC[C@]2(C)[C@H]2CC[C@@]3(C)[C@@H](CC[C@@]34CCC(=O)O4)[C@H]12
2. Nc1nc(O)c2ncn(COC(CO)CO)c2n1
3. Clc1ccc2c(c1)C(c1ccccc1)=NCc1nncn1-2
4. O=C1Nc2ccc(Cl)cc2C(c2ccccc2)=NC1O (configuration not stated)

## Result
> 30 µM
> 30 µM
> 30 µM
> 30 µM

# batch size: 3; output AC50 per entry
1. CNCCCC1c2ccccc2C=Cc2ccccc21
2. CCCOC(C(=O)OC1CCN(C)CC1)(c1ccccc1)c1ccccc1
3. CC(=O)c1ccc2c(c1)N(CCCN1CCC(CCO)CC1)c1ccccc1S2

## Result
1: > 10 µM; 2: > 30 µM; 3: > 30 µM

----------
# studyTarget: Alpha-2C adrenergic receptor (Homo sapiens); also: assay procedure not described here
# Sequence (P18825 whole entry): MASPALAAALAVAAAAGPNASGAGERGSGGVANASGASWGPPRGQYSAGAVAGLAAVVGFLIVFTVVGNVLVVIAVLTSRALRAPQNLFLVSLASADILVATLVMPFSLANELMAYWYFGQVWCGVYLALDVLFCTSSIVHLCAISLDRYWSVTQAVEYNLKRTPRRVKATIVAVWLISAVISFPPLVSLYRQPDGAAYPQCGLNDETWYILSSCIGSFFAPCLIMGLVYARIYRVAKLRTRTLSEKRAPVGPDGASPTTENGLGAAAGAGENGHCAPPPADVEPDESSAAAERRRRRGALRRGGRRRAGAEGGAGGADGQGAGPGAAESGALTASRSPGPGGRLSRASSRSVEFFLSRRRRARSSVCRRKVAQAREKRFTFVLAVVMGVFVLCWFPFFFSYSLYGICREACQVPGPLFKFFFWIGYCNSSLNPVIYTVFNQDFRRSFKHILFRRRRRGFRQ
# Format: functional
measure: AC50

A selection of reference data follows.
                                   compound  valueobserved
0  C[C@]1(COc2ccc(N3CCC(Oc4ccc(OC(F)(F)F)cc4)CC3)cc2)Cn2cc([N+](=O)[O-])nc2O1        > 10 µM
1  C#C[C@]1(O)CC[C@H]2[C@@H]3CCC4=CC(=O)CCC4=C3C=C[C@@]21CC [GESTRINONE]        > 30 µM

Fill in AC50 for each of the 7 compounds listed.
1. CNCC[C@@H](Oc1ccccc1C)c1ccccc1 [ATOMOXETINE]
2. CCN(CC)CCOC(=O)c1ccc(N)cc1Cl [CHLOROPROCAINE]
3. COCCCOc1ccnc(C[S+]([O-])c2nc3ccccc3[nH]2)c1C (configuration not stated) [RABEPRAZOLE]
4. O=C(CCCN1CCC(n2c(O)nc3ccccc32)CC1)c1ccc(F)cc1 [BENPERIDOL]
5. C[C@@H]1C[C@H]2[C@@H]3C[C@H](F)C4=CC(=O)C=C[C@]4(C)[C@@]3(F)[C@@H](O)C[C@]2(C)[C@H]1C(=O)CO [DIFLUCORTOLONE]
6. CC(C)C[C@H](CN)CC(=O)O [PREGABALIN]
7. CC(=O)OCC(CCn1cnc2cnc(N)nc21)COC(C)=O [FAMCICLOVIR]

## Result
> 30 µM
> 30 µM
> 10 µM
1.9 µM
> 30 µM
> 30 µM
> 10 µM

# map each compound to its AC50
1. COc1c(O[C@@H]2O[C@H](CO)[C@@H](O)[C@H](O)[C@H]2O)cc2c(c1OC)-c1ccc(SC)c(=O)cc1[C@@H](NC(C)=O)CC2 [THIOCOLCHICOSIDE]
2. CC(C)=CCOc1ccc(/C=C/C(=O)c2ccc(OCC=C(C)C)cc2OCC(=O)O)cc1 [SOFALCONE]

## Result
1. > 30 µM
2. > 30 µM

Consider the following items and state reported AC50 for each.
1. COc1cc2c(Nc3ccc(Br)cc3F)ncnc2cc1OCC1CCN(C)CC1 [VANDETANIB]
2. CC(C)c1cc2c(cc1S(=O)(=O)O)[C@@]1(C)CCC[C@@](C)(C(=O)O)[C@@H]1CC2 [ECABET]
3. N=C(N)NCCCCCCC(=O)NC(O)C(=O)NCCCCNCCCN (configuration not stated)
4. CC1(C)O[C@@H]2C[C@H]3[C@@H]4C[C@H](F)C5=CC(=O)C=C[C@]5(C)[C@H]4[C@@H](O)C[C@]3(C)[C@]2(C(=O)CO)O1 [FLUNISOLIDE]
5. CN1[C@@H]2CC[C@H]1C[C@@H](OC(=O)c1c[nH]c3ccccc13)C2 [TROPISETRON]
6. COc1ccc(Cc2nccc3cc(OC)c(OC)cc23)cc1OC [PAPAVERINE]
7. O=C(Nc1c(Cl)cncc1Cl)c1ccc(OC(F)F)c(OCC2CC2)c1 [ROFLUMILAST]

## Result
1. 0.856 µM
2. > 30 µM
3. > 30 µM
4. > 30 µM
5. 27 µM
6. > 30 µM
7. > 30 µM

For each entry beneath this line, provide reported AC50.
1. CO/N=C(\C(=O)N[C@@H]1C(=O)N2C(C(=O)[O-])=C(C[n+]3cccc4c3CCC4)CS[C@H]12)c1csc(N)n1 [CEFPIROME]
2. CC(=O)Nc1c(I)c(C(=O)N[C@H]2C(O)O[C@H](CO)[C@@H](O)[C@@H]2O)c(I)c(N(C)C(C)=O)c1I (some centres not stated) [METRIZAMIDE]
3. CO/N=C(\C(=O)N[C@@H]1C(=O)N2C(C(=O)O)=C(COC(N)=O)CS[C@H]12)c1ccco1 [CEFUROXIME]
4. CN1CCN(CCCN2c3ccccc3Sc3ccc(S(=O)(=O)N(C)C)cc32)CC1 [THIOPROPERAZINE]

## Result
1. > 30 µM
2. > 10 µM
3. > 30 µM
4. 2.6 µM

The reported measurements were obtained from ChEMBL document CHEMBL5291721.
